Tested on: RARg:RXRa (NR concentration 270 nM, RXRa partner concentration 90 nM)
Assay: PBM binding z-score (relative to random genomic background probes); higher = stronger binding; sequences stand for … in GC…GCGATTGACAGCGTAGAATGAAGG
Use rule met when the recorded PBM binding z-score is no lower than 3; use rule not met when it is lower.

>  <ordered.residues>
TCTCGGAGGACACGAAAGGTCAGAGTTCGACATC

>  <assigned.class>
rule met

$$$$
>  <ordered.residues>
CGAACTAGGTCAGAACAGGACAGTGAAGGATGAT

>  <assigned.class>
rule not met

$$$$
>  <ordered.residues>
ACTATTAGTGGAGACGAGGGCAACCGATAGGTTG

>  <assigned.class>
rule not met

$$$$
>  <ordered.residues>
ATCAAAAGGTCGACGAGGTGAGTATACACCGTTT

>  <assigned.class>
rule met

$$$$
>  <ordered.residues>
CGTCCAAGGTCATAGGAGGTCAGTGACGACAGAT

>  <assigned.class>
rule met

$$$$
>  <ordered.residues>
CCTCGGAGGACAGAAGGTCAGAGCTGTCCGCTTT

>  <assigned.class>
rule met

$$$$
>  <ordered.residues>
CTACCATGGTGAACAAGGTCGTTGATTACTATTC

>  <assigned.class>
rule not met

$$$$
>  <ordered.residues>
GCTGCTATGTCAGGTTGGTCAGCTAACGGGTACG

>  <assigned.class>
rule not met

$$$$
>  <ordered.residues>
TCATATCGGTAAATGCTAGGTGAAAGTCCGATCT

>  <assigned.class>
rule not met

$$$$
>  <ordered.residues>
ATCTCTAGGTAACCAAGTTCAGTGTATGCCGAAC

>  <assigned.class>
rule not met

$$$$
>  <ordered.residues>
TGAATGAGGTTAAAGACCAGGGAACGTGGCGTCG

>  <assigned.class>
rule not met

$$$$
>  <ordered.residues>
AACACAGGGTCACTAGGCCAGAGTAGGTACGAAT

>  <assigned.class>
rule met

$$$$

###

Test system: RXRa DBDmut IVT, anti-RXR (DBD mutation: RXRa K156A/R161A, NR concentration 90 nM)
Assay: PBM binding z-score (relative to random genomic background probes); higher = stronger binding; sequences stand for … in GC…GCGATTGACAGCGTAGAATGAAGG

>  <ordered.residues>
GGAGCGAGGGCAAGTTGATAGCAGAGTTTGATGG

>  <assay.system>
RXRa DBDmut IVT, anti-RXR (DBD mutation: RXRa K156A/R161A, NR concentration 90 nM)

>  <PBM binding z-score>
2.04

$$$$
>  <ordered.residues>
TCTTGTAGATCCGCAGGTTAAGAAAGCTGGCCAA

>  <assay.system>
RXRa DBDmut IVT, anti-RXR (DBD mutation: RXRa K156A/R161A, NR concentration 90 nM)

>  <PBM binding z-score>
0.638

$$$$
>  <ordered.residues>
CAGCCTAGGTCAAGGCCAGTATAGGAGGAACGTT

>  <assay.system>
RXRa DBDmut IVT, anti-RXR (DBD mutation: RXRa K156A/R161A, NR concentration 90 nM)

>  <PBM binding z-score>
0.701

$$$$
>  <ordered.residues>
TCGAGTAGGTTATGGGCATTCAGAATGGCGTCGA

>  <assay.system>
RXRa DBDmut IVT, anti-RXR (DBD mutation: RXRa K156A/R161A, NR concentration 90 nM)

>  <PBM binding z-score>
-0.148

$$$$
>  <ordered.residues>
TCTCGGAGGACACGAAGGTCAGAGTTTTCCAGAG

>  <assay.system>
RXRa DBDmut IVT, anti-RXR (DBD mutation: RXRa K156A/R161A, NR concentration 90 nM)

>  <PBM binding z-score>
0.753

$$$$
>  <ordered.residues>
ATACAAAGGTGATCGTGAGGTCGTTGATACTAAC

>  <assay.system>
RXRa DBDmut IVT, anti-RXR (DBD mutation: RXRa K156A/R161A, NR concentration 90 nM)

>  <PBM binding z-score>
0.883

$$$$
>  <ordered.residues>
TCTAGCATGCCAGAGGGTCACTCAAGAGGTACGG

>  <assay.system>
RXRa DBDmut IVT, anti-RXR (DBD mutation: RXRa K156A/R161A, NR concentration 90 nM)

>  <PBM binding z-score>
0.0251

$$$$
>  <ordered.residues>
CCTACTGGGCCATCATGTCATTGATATCAACGTT

>  <assay.system>
RXRa DBDmut IVT, anti-RXR (DBD mutation: RXRa K156A/R161A, NR concentration 90 nM)

>  <PBM binding z-score>
-0.152

$$$$
>  <ordered.residues>
TCTAGCAGGCCTGAGGGTCACTCAAGAGGTACGG

>  <assay.system>
RXRa DBDmut IVT, anti-RXR (DBD mutation: RXRa K156A/R161A, NR concentration 90 nM)

>  <PBM binding z-score>
0.198

$$$$
>  <ordered.residues>
TCTCGGAGGACACGAAGGTCTGAGCTTTCCAGAG

>  <assay.system>
RXRa DBDmut IVT, anti-RXR (DBD mutation: RXRa K156A/R161A, NR concentration 90 nM)

>  <PBM binding z-score>
0.323

$$$$
>  <ordered.residues>
CCGACTGGGGCAGAAAAGTTACCATACCATCCGG

>  <assay.system>
RXRa DBDmut IVT, anti-RXR (DBD mutation: RXRa K156A/R161A, NR concentration 90 nM)

>  <PBM binding z-score>
-0.438

$$$$
>  <ordered.residues>
CCTGCTAGGTCAATGGTTAGCTAAAGCAGCTCGC

>  <assay.system>
RXRa DBDmut IVT, anti-RXR (DBD mutation: RXRa K156A/R161A, NR concentration 90 nM)

>  <PBM binding z-score>
1.65

$$$$

###

Tested on: FXR:RXRa (NR concentration 270 nM, RXRa partner concentration 90 nM)
Assay: PBM binding z-score (relative to random genomic background probes); higher = stronger binding; sequences stand for … in GC…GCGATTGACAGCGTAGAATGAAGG
# PBM binding z-score listing for each entry below
readout.label: PBM binding z-score

>  <ordered.residues>
AGAACGAGGGCACGCTGAGTGGATAGCAGAGTAG

>  <observed.value>
0.65

$$$$
>  <ordered.residues>
TCATATAGGTAAACCGGTGAAAGTCCGTAAGTTA

>  <observed.value>
0.407

$$$$
>  <ordered.residues>
GCTAGCAGGCCACTTGGGTCACTCAATGACGGGC

>  <observed.value>
0.0158

$$$$
>  <ordered.residues>
TCTTGTAGATCAAAGATTAAGAAAGCCGAAGCCT

>  <observed.value>
0.277

$$$$
>  <ordered.residues>
GGAACGAAGGCAAAGTTGATAGCATCTGTCGACG

>  <observed.value>
-0.685

$$$$
>  <ordered.residues>
TCTAGGAGGACACGAAAGGTCAGAGCTCGACATC

>  <observed.value>
3.28

$$$$
>  <ordered.residues>
AGTCAAAGTTCAGGACGAGGCAACGTAAAGCACG

>  <observed.value>
3.7

$$$$
>  <ordered.residues>
AGAACGAGGGCACGCTGAGTTGATAGCTGAGTAG

>  <observed.value>
0.863

$$$$
>  <ordered.residues>
CCTGCTAGGTCATGGTCAACTAATCTACAGTATG

>  <observed.value>
3.72

$$$$
>  <ordered.residues>
CGGACTAGGTCAGAACAGGACAGTGAAGGATGAT

>  <observed.value>
1.12

$$$$
>  <ordered.residues>
CCTCGAAGGACAGAAGGTCAGAGCTGTCCGCTTT

>  <observed.value>
1.13

$$$$
>  <ordered.residues>
CGTCCAAGGCCATAGGAGGTCAGTGAAGACAGAT

>  <observed.value>
2.46

$$$$
>  <ordered.residues>
TCTTGTTGGTCACGGAGGTCACACACGACGGGTA

>  <observed.value>
3.76

$$$$
>  <ordered.residues>
ATCTCTAGGTAAGACTGAGTTCAGTGAAGAACGC

>  <observed.value>
0.449

$$$$
>  <ordered.residues>
TGAATGATGTTAAAGATCAGGGAACGTGGCGTCG

>  <observed.value>
0.0753

$$$$
>  <ordered.residues>
CCTAGCAGGCCACTCTGGGTCACTCAAGGCTTGA

>  <observed.value>
1.22

$$$$
>  <ordered.residues>
TTACCAAGGTGAGCTGAGGTCGTCGATCCAACTC

>  <observed.value>
1.73

$$$$
>  <ordered.residues>
TCTATTAGTTGCAGGGCAACCGACGAGTCCGTTT

>  <observed.value>
0.562

$$$$
>  <ordered.residues>
TTACCAAGGTGAAAGTCGTTGATCCCTCTGTAGA

>  <observed.value>
0.729

$$$$
>  <ordered.residues>
CATACATGGTCAGCTAGGCCAGAGTAGGGACGGC

>  <observed.value>
-0.504

$$$$
>  <ordered.residues>
TCATATAGTTAAACAGGTGAAAGTCCGTAAGTTA

>  <observed.value>
1.06

$$$$
>  <ordered.residues>
ATCTCTAGGTAACCAAGTCCAGTGAATGCCGAAC

>  <observed.value>
0.284

$$$$
>  <ordered.residues>
TAGCCTAGGTCAGATCGGGCCAGTATCCGCTATA

>  <observed.value>
2

$$$$
>  <ordered.residues>
CGAACGAGGGCAGGAGTTGATAGCAAATGCCGAT

>  <observed.value>
-0.327

$$$$
>  <ordered.residues>
CCTTGCAGGCCAGGGTCACTCAAGCATTTCGCTT

>  <observed.value>
2.3

$$$$
>  <ordered.residues>
CAGCCTACGTCAGGGCCAGTATAGGAGGAACGTT

>  <observed.value>
-0.299

$$$$
